// data source = PubChem BioAssay AID1381

assay: inhibitors of GR-EGFP nuclear translocation, primary screen, dynein cargo transport inhibitor project, imaging, high-content, 3617.4 mouse cells (AID 1381); conditions: at 20 µM, stronger effect = lower value, stimulated with dexamethasone, 1 µM
In all, about 220,000 compounds went through this assay and about 1,000 (0.45%) were called active. The sample holds actives, similar compounds and a random draw of the others, so the mix is not that of the screen.
measuredQuantity: z-score
Numbers only.

Answered examples (5):
>>> measurednumber("CCOc1ccccc1N1CCN(C(=O)COc2ccc3c(C)cc(=O)oc3c2)CC1")
1.35
>>> measurednumber("O=C(NCc1ccc(F)cc1)C(c1ccccc1)N(C(=O)c1csnn1)C1CC1 (stereo not given)")
2.29
>>> measurednumber("CCOC(=O)c1cnc2[nH]c3ccccc3n2c1=O")
-0.506
>>> measurednumber("Cc1cccc(C)c1NC1=NC(=S)N(c2ccc(N(C)C)cc2)C1(C)C")
1.25
>>> measurednumber("CCCn1c(SCC(=O)Nc2ccc(C)c(S(=O)(=O)N3CCOCC3)c2)n[nH]c1=O")
1.09

Fill in z-score for each of the 2 compounds listed.
1. CC(=O)c1ccc(-c2nnc(CCC(=O)N(C)Cc3cnc4ccccn34)o2)s1
2. C=CCn1cc(C(=O)NCc2ccc(Cl)cc2)c(=O)c2cc(S(=O)(=O)N(CC)CC)ccc21

Reply |
1. -0.0124
2. 0.479

Field: z-score. Fill in for each record below.
1. Cc1nnc(SCCCCSc2nnc(C)c(=O)[nH]2)[nH]c1=O
2. O=C(CCc1nnc(CCCCc2ccccc2)o1)NC(c1cccnc1)C(F)(F)F (stereo not given)
3. O=[N+]([O-])c1ccc(NCCCN2CCOCC2)c(Cl)c1
4. CC(=O)NCC(=O)N1CCCC(C(=O)c2ccc3c4c(cccc24)CC3)C1 (stereo not given)
5. O=[N+]([O-])c1cc(S(=O)(=O)CCCN2CCOCC2)ccc1F
6. COc1ccc(/C=N/N=C2/C(=O)Nc3ccccc32)cc1O
7. CCc1c(SCCC(=O)O)nc2ccccc2c1C

Reply |
[-0.311, -0.699, 0.346, 0.368, -4.25, 0.0879, -0.704]

----------
assay: inhibitors of GR-EGFP nuclear translocation, primary screen, dynein cargo transport inhibitor project, imaging, high-content, 3617.4 mouse cells (AID 1381); settings: at 20 µM, stronger effect = lower value, stimulated with dexamethasone, 1 µM
The campaign covered roughly 220,000 compounds. About 1,000 (0.45%) were called active. Shown is part of a subset that was picked to be rich in actives.
measuredQuantity: z-score
Numbers only.

Look over these answered cases.
>>> measurednumber("Clc1cccc(-c2nc3nc4ccccc4nc3n2Cc2ccco2)c1")
-4.09
>>> measurednumber("C[C@@H]1C[C@@H]2O[C@H]2/C=C\\C=C\\C(=O)Cc2c(Cl)c(O)cc(O)c2C(=O)O1")
-3.8

Lab note: next compound to report on.
Ask | Which measured z-score value corresponds to CCCSC(=S)NC1CCS(=O)(=O)C1 (stereo not drawn) ?
Reply | -1.85

----------
experiment: inhibitors of GR-EGFP nuclear translocation, primary screen, dynein cargo transport inhibitor project, imaging, high-content, 3617.4 mouse cells (AID 1381); settings: measured here: nuclear GR-EGFP intensity, at 20 µM, stronger effect = lower value, stimulated with dexamethasone, 1 µM
Out of some 220,000 compounds screened, about 1,000 (0.45%) were called active. The sample as a whole holds a higher share of actives than the screen did.
Output fulfilled for records whose z-score is lower than -0.07, not fulfilled for records at or above -0.07.

Look over these answered cases.
>>> grouplabel("COc1ccc(CS(=O)/C(Cl)=C(/Cl)C(=O)Nc2ccc(OC)nc2)cc1 (configuration not stated)")
"fulfilled"
>>> grouplabel("Cc1nc(-c2ccccc2)sc1C(=O)/C=C/c1ccccc1")
"fulfilled"
>>> grouplabel("CC(Nc1ccccc1)c1cccnc1 (configuration not stated)")
"fulfilled"
>>> grouplabel("COc1ccc(/C=N/N=C2/C(=O)Nc3ccccc32)cc1O")
"not fulfilled"
>>> grouplabel("O=C(/C=C/c1cnc2ccccc2n1)NC1CCCCCC1")
"fulfilled"

Ask | Threshold test, z-score < -0.07: COc1ccc(-c2csc(-c3cccs3)n2)cc1OC
Reply | not fulfilled

Ask | Just wondering, is z-score of Cc1cc(C)c(C#N)c(SCc2[nH]nc3c2C(c2ccccc2)C(C#N)=C(N)O3)n1 (configuration not stated) below -0.07?
Reply | fulfilled

Ask | For this molecule, is z-score lower than -0.07? O=C(Nc1ccccc1Cl)/C(Cl)=C(\Cl)S(=O)c1ccccc1 (configuration not stated)
Reply | fulfilled

Ask | # strict comparison: is reported z-score < -0.07? input = COc1ccc(-c2noc(-c3cccc(OC)c3OC)n2)cc1OC
Reply | not fulfilled

Ask | Say whether its z-score is strictly beneath -0.07. Entry: O=C(/C=C/c1cccs1)c1cc(Cl)ccc1OC(=O)N1CCOCC1
Reply | fulfilled

Ask | Strictly below -0.07 in z-score? O=C(Nc1ccn(Cc2ccccc2)n1)c1n[nH]c([N+](=O)[O-])c1Cl
Reply | not fulfilled
